As shown below, each of these compounds has a reported pIC50 value.
Target: mTOR (Homo sapiens)
Construct: mTOR protein was isolated from HeLa cell cytoplasmic extract by immunoprecipitation; endogenous in cells; host or cells: HeLa cell cytoplasmic extract (immunoprecipitate)
Experiment: Biological Assay: mTOR enzyme activity, mTOR immunoprecipitated from HeLa cell cytoplasmic extract, recombinant PHAS-1 as substrate
Type: biochemical
Details: Biological Assay, upper bounds; read-out: IC50 values against mTOR
pIC50: −log10 of the molar value.

Compound	pIC50
Cc1nnc(Nc2ccc3c(N4CCOCC4)nc(N4C[C@@H](C)O[C@@H](C)C4)nc3n2)o1	> 5.00
COc1ccc(-c2ccc3c(N4CCOCC4)nc(N4C[C@@H](C)O[C@@H](C)C4)nc3n2)cc1CNC(Cc1ccc(O)cc1)C(=O)O (stereo partly shown)	> 7.00
C[C@@H]1CN(c2nc(N3CCOCC3)c3ccc(-c4cccc(CO)c4)nc3n2)C[C@H](C)O1	> 7.00
Cc1ccc(-c2ccc3c(N4CCOCC4)nc(N4C[C@@H](C)O[C@@H](C)C4)nc3n2)cc1	> 7.00
C[C@@H]1CN(c2nc(N3CCOCC3)c3ccc(-c4cnn(C)c4)nc3n2)C[C@H](C)O1	> 6.00
Cc1cnccc1Nc1ccc2c(N3CCOCC3)nc(N3C[C@@H](C)O[C@@H](C)C3)nc2n1	> 6.00

Exercise: Consider the compound CC(=O)Nc1cccc(-c2ccc3c(N4CCOCC4)nc(N4C[C@@H](C)O[C@@H](C)C4)nc3n2)c1 and give its recorded pIC50.
Solution: > 6.00

====

Molecular target: recombinant mTOR (FLAG-tagged, amino acid residues 1362 to 2549) (Homo sapiens, UniProt P42345)
Experiment: Alternative Enzyme Assay: AlphaScreen, inhibition of phosphorylation by recombinant mTOR
Assay type: biochemical
Conditions: AlphaScreen, ATP 20 μM; read-out: IC50, tested in Alternative Enzyme Assay
Overview of reported pIC50 across a group of compounds:
Note on pIC50: it is the negative log10 of concentration, concentration in mol/L.

Compound	pIC50
COc1ccc(-c2ccc3c(N4CCOC[C@@H]4C)nc(-c4cccc(N)c4)nc3n2)cc1CO [Example 29f]	7.02
C[C@@H]1CN(c2nc(N3CCOCC3)c3ccc(-c4ccc(Cl)cc4)nc3n2)C[C@H](C)O1	7.24

Shifting focus to the compound that follows.
Exercise: Return value of pIC50 for input C[C@H]1COCCN1c1nc(N2CCOC[C@@H]2C)c2ccc(-c3cccc(Cl)n3)nc2n1 [Example 11v] , no commentary.
Solution: 6.74

====

Target: recombinant mTOR (FLAG-tagged, amino acid residues 1362 to 2549) (Homo sapiens, UniProt P42345)
Assay: Alternative Enzyme Assay: AlphaScreen, inhibition of phosphorylation by recombinant mTOR
Format: biochemical
Conditions: Alternative Enzyme Assay, upper bounds; read-out: IC50 values against mTOR
pIC50: −log10 of the molar value.
// pIC50 lookup, one value per entry

Recorded pIC50, per entry:
Molecule	pIC50
COc1ccc(-c2ccc3c(N4CCOCC4)nc(-c4ccco4)nc3n2)cc1CO	> 5.00
FC(F)(F)c1cccc(-c2nc(N3CCOCC3)c3ccc(-c4ccc(Cl)cc4)nc3n2)c1	> 6.00
C[C@@H]1CN(c2nc(N3CCOCC3)c3ccc(-c4ccc(OCCCO)cc4)nc3n2)C[C@H](C)O1	> 6.00

Exercise: Supply measured pIC50 of COc1ccc(-c2ccc3c(N4CCOCC4)nc(-c4ccc(OC)c(CO)c4)nc3n2)cc1CO in your reply.
Solution: > 5.00

Exercise: Entry C[C@@H]1CN(c2nc(N3CCOCC3)c3ccc(-c4ccc(OCC5CCCO5)cc4)nc3n2)C[C@H](C)O1 (stereo partly shown) needs its pIC50 filled in; supply it.
Solution: > 6.00
